Every entry's value here was drawn from ChEMBL document CHEMBL3797124.

biological target: 5-hydroxytryptamine receptor 6 (Rattus norvegicus); test: Displacement of [3H]-LSD from rat 5-Ht6 receptor expressed in HEK cells at 10 uM after 60 mins by liquid scintillation counting; assay type: cell-based; settings: HEK293
Think of 7% as a floor: if inhibition stands on it or above, it is Yes; beneath it, No.

Task: Hi team, for CC(C)(C)NC(=O)C(c1ccc(Br)cc1)N1CCc2c([nH]c3ccccc23)CC1=O (centres undefined) , is the recorded inhibition at or above 7%?
Output: Yes

Task: And what about the molecule CC(C)(C)n1nnnc1C(c1ccc(Br)cc1)N1CCc2c([nH]c3ccccc23)CC1=O (centres undefined) ?
Output: Yes

Task: And what about the molecule CC(C)(C)n1nnnc1C(C1CCCCC1)N1CCc2c([nH]c3ccccc23)CC1=O (centres undefined) ?
Output: No

Task: And what about the molecule Cc1cccc(C)c1NC(=O)C(c1ccc(Cl)cc1)N1CCc2c([nH]c3ccccc23)CC1=O (centres undefined) ?
Output: Yes

Task: And what about the molecule Cc1cccc(C)c1-n1nnnc1C(C1CCCCC1)N1CCc2c([nH]c3ccccc23)CC1=O (centres undefined) ?
Output: No

Task: And what about the molecule CSc1ccc2c(c1)C(N1CCN(C)CC1)Cc1ccccc1S2 (centres undefined) ?
Output: Yes

Task: And what about the molecule CC(C)(C)NC(=O)C(c1ccc(Cl)cc1)N1CCc2c([nH]c3ccccc23)CC1=O (centres undefined) ?
Output: Yes
